# credit: ChEMBL document CHEMBL1144442

- Organism: Mus musculus
- testProtocol: In vitro inhibitory concentration necessary to neutralize Gram-negative bacterial lipopolysaccharide in mouse model
- Assay type: functional, organism-based
recordedMetric: IC50

IC50 for POLYMYXIN B ?
< 0.1 nM
